The reported measurements were obtained from ChEMBL document CHEMBL3045696.

MIC values for the compounds below.
# Tested on: Staphylococcus epidermidis
# ASSAY EXPLANATION: Antimicrobial activity against Staphylococcus epidermidis by broth dilution method
# Format: functional
Give the number; µg/mL is assumed, so skip it.

Use the examples below as a reference point.
O=c1oc2ccc(Cl)cc2n1CCCCl = 150
OCCN1CCN(c2nc3ccccc3o2)CC1 = 150
O=c1oc2ccc(Cl)cc2n1CCCN1CCOCC1 = 75
O=c1oc2ccc(Cl)cc2n1CCCN1CCN(c2ccccn2)CC1 = 150
O=c1oc2ccc(Cl)cc2n1CCCN1CCN(c2ncccn2)CC1 = 150

QUERY: Quick check: MIC of c1ccc2oc(N3CCCCC3)nc2c1 ?
RESULT: 150

QUERY: Quick check: MIC of C=CCCn1c(=O)oc2ccc(Cl)cc21 ?
RESULT: 150

QUERY: Quick check: MIC of c1cnc(N2CCN(c3nc4ccccc4o3)CC2)nc1 ?
RESULT: 150

QUERY: Quick check: MIC of c1ccc(N2CCN(c3nc4ccccc4o3)CC2)nc1 ?
RESULT: 150

QUERY: Quick check: MIC of CC(C)=CCn1c(=O)oc2ccc(Cl)cc21 ?
RESULT: 75

QUERY: Quick check: MIC of O=c1oc2ccc(Cl)cc2n1CCCN1CCN(c2cccc(Cl)c2)CC1 ?
RESULT: 150

QUERY: Quick check: MIC of C#CCn1c(=O)oc2ccc(Cl)cc21 ?
RESULT: 75

QUERY: Quick check: MIC of O=c1oc2ccc(Cl)cc2n1CCCN1CCN(c2ccccc2)CC1 ?
RESULT: 150
